- ASSAY EXPLANATION: binders of probe aFGF10 on microarray, primary screen, stem cell growth factor project, biochemical, small-molecule microarray, fluorescence 635/667 (AID 1071);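 also: score merges 667 nm spot intensity and signal to noise from triplicate slides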
- EXPERIMENTAL PARAMETERS: higher = more signal
The recorded composite z-score of each item maps onto one of these classes: range A: < 0.2; range B: ≥ 0.2 and < 0.6; range C: ≥ 0.6

These recorded examples may help you get a feel for the data.
C=C/C=C/[C@@H]1C(=C)CN([C@@H](Cc2ccccc2)C(=O)OC)[C@H]1[C@@H](O)Cc1ccccc1    range B
COCCOC(=O)N1C(=O)[C@@]2(c3cc(C#CC4=CCCCC4)ccc31)[C@H](C(=O)N1CCCCCCC1)[C@H]1C(=O)O[C@H](c3ccccc3)[C@H](c3ccccc3)N1[C@@H]2c1ccc(OCCO)cc1    range B
Cc1cccc([C@H]2C[C@H]3C(I)=C[C@@H]2C(=O)[C@]32CO2)c1    range A
CN(C)C(=O)[C@@]1(CCC(=O)OC(C)(C)C)N=C(c2ccc(OCCCO)cc2)O[C@H]1c1ccccc1CN=[N+]=[N-]    range B
CN1C=C(C(=O)OCCS(C)(=O)=O)C(C(=O)OCCS(C)(=O)=O)=CC(c2ccc(CO)cc2)=CC1c1cccs1 (stereo not drawn)    range B
COC(=O)C(CC#Cc1ccc2c(c1)[C@]1(C(=O)N2)[C@H](C(=O)Nc2nc3ccccc3s2)[C@H]2C(=O)O[C@H](c3ccccc3)[C@H](c3ccccc3)N2[C@@H]1c1ccc(OCCO)cc1)C(=O)OC    range C

## Task Which class does C=C(COC)/C(=C/C[C@@H](OC(C)=O)c1ccc(CO)o1)c1cc(C(=O)OC)ccc1OC fall in?
## Result range C

## Task Likewise for CO[C@H]1O[C@H](CO)[C@@H](OC(=O)Nc2ccc(C#N)cc2)[C@@H]2OC(=O)[C@H](Cc3cccc(Br)c3)C/C=C/C[C@@H](Cc3cccc(Br)c3)C(=O)O[C@@H]12 ?
## Result range B

## Task Likewise for CC(C)C[C@@H]1NC(=O)[C@H]2C[C@@H](C(=O)NCCCCCN)[C@@H](c3cccc(OCCO)c3)N2C1=O ?
## Result range A

## Task Likewise for O=C1OCCC=C[C@H]2OC34C=CCN(c5ccc(Cl)cc5)C(=O)[C@H]3N(CCCCCCO)C(=O)[C@@H]4C12 (stereo partly drawn) ?
## Result range A

## Task Likewise for O=C(CS)NCCCCCCNC(=O)[C@@H]1C[C@@H]2C(=O)NCC(=O)N2[C@@H]1c1ccc(O)cc1 ?
## Result range A

----------
- TARGET OR SYSTEM: Torsin-1A (Homo sapiens) (UniProt O14656)
- Sequence (O14656 whole entry, looked up): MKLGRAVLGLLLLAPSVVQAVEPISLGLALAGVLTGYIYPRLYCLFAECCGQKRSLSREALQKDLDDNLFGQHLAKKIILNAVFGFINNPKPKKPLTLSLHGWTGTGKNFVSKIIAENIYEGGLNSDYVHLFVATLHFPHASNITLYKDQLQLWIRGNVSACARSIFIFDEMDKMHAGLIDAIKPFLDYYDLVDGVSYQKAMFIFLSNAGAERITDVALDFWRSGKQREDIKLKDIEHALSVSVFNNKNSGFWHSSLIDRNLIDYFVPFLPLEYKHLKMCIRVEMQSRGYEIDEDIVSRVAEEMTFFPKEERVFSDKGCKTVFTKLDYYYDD
- ASSAY EXPLANATION: torsin A binders from cell lysate, primary screen, small-molecule microarray, wild-type, 635/667 nm (AID 1149)
- EXPERIMENTAL PARAMETERS: COS7 hTOR1A-WT lysate, 635 nm fluorescence, higher = more signal
t means recorded composite z-score is -0.2 or above; f means it is below -0.2.

These recorded examples may help you get a feel for the data.
COC(=O)[C@@]1(Cc2ccc(F)cc2)[C@H]2c3cc(C(=O)N4CCCC4)n(C)c3C[C@H]2CN1C(=O)c1ccccc1    t
CC(C)C(=C=CC[C@H](O)c1cccc(OCCO)c1)CCO    f

## Task Reported composite z-score at or above -0.2? Cc1cccc([C@H]2C[C@H]3C(Br)=C[C@@H]2C(=O)[C@]32CO2)c1
## Result t

## Task Likewise for COCC(=C=CC[C@H](O)c1cccc(OCCO)c1)C[C@H](O)COCc1ccccc1 ?
## Result t

## Task Likewise for COc1cc(NN2C(C(O)c3cc(OC)c(OC)c(OC)c3)C=CC3C(=O)N(c4ccccc4)C(=O)C32)cc(OC)c1OC (centres undefined) ?
## Result t

## Task Likewise for C=CC1c2cc(O)c(OC)cc2CCN1Cc1ccc([N+](=O)[O-])o1 (centres undefined) ?
## Result t

## Task Likewise for C#C[C@@H](CC)O[Si](C#CCCCC#N)(C(C)C)C(C)C ?
## Result t

## Task Likewise for O=C1OCC=C[C@H]2OC34C=CCN(c5ccc6ccccc6c5)C(=O)[C@H]3N(CCCCCO)C(=O)[C@@H]4[C@@H]12 (some centres undefined) ?
## Result f

## Task Likewise for C=C(CCCC)/C(=C/C[C@H](OC(C)=O)c1ccc(OCCO)cc1)c1cc(C(=O)OC)ccc1OC ?
## Result f

----------
- ASSAY EXPLANATION: COS7 lysate on small-molecule microarray, probe aHis, 635 nm (AID 1123);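 also: z-score combines 667nm fluorescence intensity with signal-to-noise per printed compound spot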
- EXPERIMENTAL PARAMETERS: COS7 cell lysate, fluorescence, higher = more signal
VALUE KIND: composite z-score
Answers are plain numbers.

C=CCN1C(=O)[C@]2(O[C@H](CCO)[C@@H]([Si](C)(C)c3ccc(OC)cc3)[C@@H]2C)c2cc(NC(=O)c3ccc(OC)cc3)ccc21    0.13
CCOC(=O)C1=C[C@@H](c2ccccc2)N(S(=O)(=O)c2ccc(C)cc2)[C@H]1c1ccccc1    -0.136
CN1C(=O)[C@@H]2[C@@H](CC(COc3ccccc3)=C([C@H](O)CCc3ccccc3)[C@@H]2CO)C1=O    -0.492

## Task Look at this molecule and give its reported composite z-score. O=C1[C@@]23C=C(Br)[C@H](C[C@@H]2COC3)[C@@]12CO2
## Result 0.301

----------
- System: Fibrinogen (Alexa647-labelled)
- ASSAY EXPLANATION: fibrinogen binders on compound microarrays, profiling panel, artefact control for SMM control-protein annotation, biochemical, small-molecule microarray, 635/667 nm fluorescence (AID 1131);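 also: z-score merges 667 nm fluorescence with per-spot signal-to-noise over triplicate slides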
- EXPERIMENTAL PARAMETERS: fibrinogen-A647 binding fluorescence, higher = more signal
VALUE KIND: composite z-score
One number for each entry.

CN(C)C(=O)[C@@]1(Cc2ccccc2)COC(c2ccc(OCCCO)cc2)=N1    0.414
Cc1c(NC(=O)/C(C#N)=C/c2ccccc2Cl)c(=O)n(-c2ccccc2)n1C    0.425

## Task Look at this molecule and give its reported composite z-score. CCOC(=O)C1=CCN(S(=O)(=O)c2ccc(C)cc2)C1c1ccccc1 (stereo not drawn)
## Result 0.609

----------
Consider the following molecules; for each one, report its composite z-score.
- Test system: Sonic hedgehog protein (Shh)
- ASSAY EXPLANATION: small-molecule binders of Shh protein, primary screen, biochemical, small-molecule microarray, 635/667 nm fluorescence (AID 1151);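 also: Shh protein binding to compounds spotted on small-molecule microarray slides; score combines spot fluorescence intensity with signal-to-noise across triplicate slides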
- EXPERIMENTAL PARAMETERS: small-molecule microarray binding, 635 nm fluorescence; higher = more signal

A selection of reference data follows.
COc1cc(C(O)C2C=CC3C(=O)N(Cc4ccccc4)C(=O)C3N2n2cnnc2)cc(OC)c1OC (configuration not stated)    0.131
[N-]=[N+]=NCc1ccccc1[C@@H]1OC(c2ccc(OCCCO)cc2)=N[C@]1(Cc1ccccc1)C(=O)NCCN1CCOCC1    0.0392
CC(=O)N1CC(C(O)C2C=CC3C(=O)NC(=O)C3N2Nc2ccc(Cl)cc2Cl)c2ccccc21 (configuration not stated)    -0.123
C=CC1c2cc(O)c(OC)cc2CCN1Cc1ccc([N+](=O)[O-])o1 (configuration not stated)    -0.873

Quick one: give me composite z-score for each item below, same order please.
1. Cc1ccc(F)cc1S(=O)(=O)N[C@@H]1CCN(Cc2cccc3[nH]ccc23)C1
2. COc1cc(NN2C(C(O)C3CCCCC3)C=CC3C(=O)N(C)C(=O)C32)cc(OC)c1OC (configuration not stated)
3. COCCCNC(=O)[C@@]1(c2ccc([N+](=O)[O-])cc2)CC(=O)N(C(C)C)[C@@H]1c1ccc(CO)cc1

## Result
0.969
-0.68
0.0776

----------
- ASSAY EXPLANATION: MM1S myeloma cell viability, profiling panel, resazurin fluorescence, basal, 24 h, PK04 Diversity Set (AID 1174);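 also: MM1S multiple myeloma cell line; test concentration not given here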
- EXPERIMENTAL PARAMETERS: higher = more signal, called active from +8 up or from −8 down
The recorded z-score of each item maps onto one of these classes: low bracket: < -1; middle bracket: ≥ -1 and < -0.2; high bracket: ≥ -0.2

These recorded examples may help you get a feel for the data.
O=C1[C@@H]2[C@@H](CC(COc3ccccc3)=C3[C@@H](CCc4ccccc4)OB(O)C[C@@H]32)C(=O)N1Cc1ccccc1    high bracket
C[C@]1(C(=O)NCCN2CCOCC2)c2ccccc2C(=O)N(Cc2cc(F)cc(C(F)(F)F)c2)[C@H]1c1ccc(CO)cc1    middle bracket

## Task Which class does COc1ccc(C(O)C2C=CC3C(=O)N(c4ccccc4)C(=O)C3N2Nc2ccc(C(C)C)cc2)c2ccccc12 (centres undefined) fall in?
## Result middle bracket

## Task Likewise for C=C(COC)C(=O)CC[C@@H](OC(=O)c1cccnc1)c1ccccc1OCCO ?
## Result low bracket

## Task Likewise for NC(=O)N1C(=O)C2C(C1=O)C1C=C(CCCO)C2C(C2CC2)N1Cc1cccc(OC(F)(F)F)c1 (centres undefined) ?
## Result middle bracket

## Task Likewise for CCCCC=C[C@@H](NC(=O)c1ccccc1)c1ccccc1 ?
## Result high bracket

## Task Likewise for [N-]=[N+]=NCc1ccccc1[C@@H]1OC(c2ccc(OCCCO)cc2)=N[C@]1(Cc1ccccc1N=[N+]=[N-])C(=O)N1CCCCC1 ?
## Result low bracket

## Task Likewise for CN1C(=O)C2C=CC(C(O)c3cc(C(F)(F)F)cc(C(F)(F)F)c3)N(Nc3ccccc3)C2C1=O (centres undefined) ?
## Result high bracket

## Task Likewise for CC(C)N1CC=CC23O[C@@H]4/C=C\CCCOC(=O)C4[C@H]2C(=O)N(CCCCCCO)[C@@H]3C1=O (some centres undefined) ?
## Result high bracket

## Task Likewise for COCCOC(=O)N1C(=O)[C@@]2(c3cc(C#CCNC(N)=O)ccc31)[C@H](c1ccc(OCCO)cc1)N1[C@H](c3ccccc3)[C@H](c3ccccc3)OC(=O)[C@H]1[C@@H]2C(=O)NC[C@H](O)c1ccccc1 ?
## Result high bracket

## Task Likewise for NC(=O)[C@H]1[C@@H]2C(=O)O[C@@H](c3ccccc3)[C@@H](c3ccccc3)N2[C@@H](c2ccc(O)cc2)[C@]12C(=O)Nc1ccc(C#CC3=CCCCC3)cc12 ?
## Result low bracket

## Task Likewise for COCCCNC(=O)[C@@]1(c2ccc([N+](=O)[O-])cc2)CC(=O)N(CC23CC4CC(CC(C4)C2)C3)[C@@H]1c1ccc(CO)cc1I ?
## Result low bracket

## Task Likewise for COc1cc(NN2C(C(O)c3ccccc3)C=CC3C(=O)N(C)C(=O)C32)cc(OC)c1OC (centres undefined) ?
## Result low bracket

## Task Likewise for C=CCN1C(=O)[C@]2(O[C@H](CCO)[C@@H]([Si](C)(C)c3ccc(OC)cc3)[C@@H]2C)c2cc(NC(=O)c3ccc(OC)cc3)ccc21 ?
## Result low bracket

## Task Likewise for CC(C)OC(=O)CC(=O)CC(O)c1ccc([N+](=O)[O-])cc1 (centres undefined) ?
## Result high bracket

## Task Likewise for Cc1cccc([C@H]2C[C@H]3C(I)=C[C@@H]2C(=O)[C@]32CO2)c1 ?
## Result middle bracket

## Task Likewise for COc1ccc([Si](C)(C)[C@@H]2[C@@H](CCn3cc([C@H](O)c4ccccc4)nn3)O[C@]3(C(=O)N(Cc4cccc(N5C(=O)c6cccc7cccc5c67)c4)c4ccccc43)[C@H]2C)cc1 ?
## Result low bracket

## Task Likewise for C=C(/C(=C/C[C@H](OC(=O)c1ccncc1)c1ccccc1OCCO)c1cnc2ccccc2c1)C(C)C ?
## Result middle bracket
